- Tested on: MS2 coat protein
- Assay summary: apparent KD of MS2 coat protein; higher = weaker reporter binding
- Condition set: Eterna round: R107; input ligand: theophylline 20 uM
Property label: apparent KD of MS2 coat protein (µM)
# unit: µM | format: bare number

Example results:
Data request: Please list apparent KD of MS2 coat protein recorded for the sequence CAGCACAUGAGGAUCACCCAUGUGAGGGAUACCAGCUCAGGCGUGGGCCCUUGGCAGCUCUGUGGCUGACGAAAGUCAGCCUCUG [#18 SameState-TheophyllineA]
Data returned: 0.0177

Data request: Find the measured apparent KD of MS2 coat protein of CGGGACAUGAGGAUCACCCAUGUACGAUCCCGAGGACCGGUACGGCCGCCACUCGCUAGCGUUGAGUCGCGACUUUCAUAACUAA [theeternabot_sameState_MS2_Trp_A_27] and report it.
Data returned: 0.0922

Could you now look at the following sequence, please?
Data request: Please list apparent KD of MS2 coat protein recorded for the sequence CGUACAUGAGGAUCACCCAUGUAGAGUGAUACCAGUCUACCUAGUGACCCUUGGCAGCACAUCGAUGGCAUCGGUGAUGCCGUUU [Atveti]
Data returned: 0.116

---

- Tested on: MS2 coat protein
- Assay summary: apparent KD of MS2 coat protein; designed switch direction (-1 OFF switch, 1 ON switch): -1; higher = weaker reporter binding
- Condition set: Eterna round: R98; input ligand: FMN 200 uM
In this section, each of the sequences is paired with its reported apparent KD of MS2 coat protein.
All answers are understood in nM, so give the number only.

Data request: Given AAUAUAAAGAGCUGGCUUCUAAUAACAUGAGGAUCACCCAUGUAGGAUAUCAGCACGAUAAGUGCUGAGAAGGACAUCCAGCUC [Denovo 53] , report its apparent KD of MS2 coat protein on MS2 coat protein.
Data returned: 14.3

Data request: Send back MS2 coat protein apparent KD of MS2 coat protein of UAAGUCGGAAGAUAAUAAUGAAUACAUGAGGAUCACCCAUGUAAGGAUAUGCAGUGGAAUACACUGCAGAAGGUACAAACCGAC [Exclusion NG 3/17-A2] only.
Data returned: 24.6

---
Data request: Lab note: MS2 coat protein assay, enter apparent KD of MS2 coat protein for GAACUCACGGCAUGCAUAUAAGCACAUGAGGAUCACCCAUGUCAGGAUAUCCACGGUCGUGCUUCGGAGAAGGGACAUGAGGCG [Lainxe] here
Data returned: 48

---

- Tested on: MS2 coat protein
- Assay summary: apparent KD of MS2 coat protein; designed switch direction (-1 OFF switch, 1 ON switch): -1; higher = weaker reporter binding
- Condition set: Eterna round: R95; input ligand: microRNA oligo, concentration not stated
Recorded apparent KD of MS2 coat protein, one value per entry.
Just the number please, in nM, no unit attached.

Use these answered entries as a reference point.
Data request: Tell me its apparent KD of MS2 coat protein given CCUCGUAACUAGGAUAUCCGAAAUAAGCGAGGAGGAGAAGGAGUUACAUGAGGAUCACCCAUGUGAUAUAAAGA [Orisxe] (puzzle: Exclusion 6) as the entry.
Data returned: 15.5

Data request: Answer with the recorded apparent KD of MS2 coat protein of AAAAGGUCAGGAUAUACAAGAAAAGAAAAGAAAAGAAAAGAGUAGAAGGGACAUGAGGAUCACCCAUGUAAAAG [Default title] (puzzle: Exclusion 4) only.
Data returned: 45.8

Data request: Supply apparent KD of MS2 coat protein value. Item: GAUUAUGCGAGCUUUAGGGACAUGAGGAUCACCCAUGUUCGUCUUAUUGAUCUAGGUACGCUGACGUACCUAGAUCU [JL-sv1-2.35 Brourd mod] (puzzle: Sensor v3, turn-off variant 1)
Data returned: 33.7

Data request: Give apparent KD of MS2 coat protein for AGAUGGCGAGGAUAUACAUGAGGAUCACCCAUGUGAAGAGAAAGAGUGAGGAAGAAAAGUAGAAGGCGCUGUCA [Mat - Exclusion 3 - Mod of Salish D29] (puzzle: Exclusion 3)
Data returned: 99.7

Others:
Data request: Determine from records and report apparent KD of MS2 coat protein for UGCAUGCUAGGAUAUACGAAACAUUAGGGUUCGUCGUAUGAACAUGAGGAUCACCCAUGUAGAAGGAGCGUGCU [Mod6 of JL-ex2-2.15 mat747 mod] (puzzle: Exclusion 2)
Data returned: 16.8

Data request: Output apparent KD of MS2 coat protein of UCGCUGCGAGGAUAUACAUGAGGAUCACCCAUGUGCGGGUCCGGGUCUUUGUCCAUUAGUAGAAGGCGCAGUGA [JL Laongeedie mod 5] (puzzle: Exclusion 3)
Data returned: 225

Data request: Provide only the value of recorded apparent KD of MS2 coat protein for CGGUGCUGAGGAUAUACAUGAGGAUCACCCAUGUGUGCCAGCUAGAAGACUGGCACUUGUAGAAGGCAGUACUG [Mat - Exclusion 3 - Mod of JL D90] (puzzle: Exclusion 3)
Data returned: 10.3
